Where a name gives a salt, the structure may show the parent alone.
Here's what we have: pIC50 numbers for serotonin transporter (SERT) (Rattus norvegicus, UniProt P31652).
Note on units: pIC50 is unitless, being -log10 of a concentration expressed in mol/L.

Take a look at these entries with their results.
CN(C)Cc1c(N2CCOCC2)ccc2c(CCC3CCN(Cc4ccc(C#N)s4)CC3)noc12 [Example 213, dihydrochloride]    7.72
CN(C)Cc1c(OCC2CC2)ccc2c(CCC3CCN(Cc4ccc(C#N)s4)CC3)noc12 [Example 155, dihydrochloride]    8.28
CN(C)Cc1c(-c2ccccc2)ccc2c(CCC3CCN(Cc4ccccc4)CC3)noc12 [Example 120, dihydrochloride]    9.05
CN(C)Cc1c(OCC2CC2)ccc2c(CCC3CCN(CC4(CO)CCCC4)CC3)noc12 [Example 51, dihydrochloride]    8.72

The compound CN(C)Cc1c(OCc2ccc(C#N)cc2)ccc2c(CCC3CCN(CC4OCCO4)CC3)noc12 [Example 154, fumarate] , when measured on serotonin transporter (SERT) (Rattus norvegicus, UniProt P31652), yielded pIC50 of 9.00

// assay serotonin transporter (SERT) (Rattus norvegicus, UniProt P31652), entry N#Cc1ccc(CN2CCC(CCc3noc4c(CN5CCC5)c(OCC5CC5)ccc34)CC2)s1 [Example 118, fumarate] , pIC50 value = 8.00

Measured on serotonin transporter (SERT) (Rattus norvegicus, UniProt P31652), CN(C)Cc1c(OCC2CC2)ccc2c(CCC3CCN(Cc4ccccc4)CC3)noc12 [Example 39, dihydrochloride] has a documented pIC50 of 7.89

Noted pIC50 for CN(C)Cc1c(OCc2ccc(F)cc2)ccc2c(CCC3CCN(CC4OCCO4)CC3)noc12 [Example 22, dihydrobromide] , tested on serotonin transporter (SERT) (Rattus norvegicus, UniProt P31652): 8.80

Entry CN(C)Cc1c(OCc2ccc(C#N)cc2)ccc2c(CCC3CCN(Cc4ccccc4)CC3)noc12 [Example 153, dihydrochloride] under serotonin transporter (SERT) (Rattus norvegicus, UniProt P31652) had pIC50 of 9.52

Reading of pIC50 for CNCc1c2ccccc2cc2c(CCC3CCN(Cc4ccc(C#N)s4)CC3)noc12 [Example 152, dihydrochloride] with serotonin transporter (SERT) (Rattus norvegicus, UniProt P31652): 8.00

Entry CN(C)Cc1c(OCC2CC2)ccc2c(CCC3CCN(Cc4c[nH]c5ccc(F)cc45)CC3)noc12 [Example 88, dihydrochloride] ; assay system serotonin transporter (SERT) (Rattus norvegicus, UniProt P31652); pIC50 recorded at 8.28

Note to self: pIC50 of CN(C)Cc1c2ccccc2cc2c(CCC3CCN(Cc4ccc(C#N)s4)CC3)noc12 [Example 151, dihydrochloride] with serotonin transporter (SERT) (Rattus norvegicus, UniProt P31652) was 7.27

Tested on serotonin transporter (SERT) (Rattus norvegicus, UniProt P31652), the item CN(C)Cc1ccc2c(CCC3CCN(Cc4ccccc4)CC3)noc2c1OCC1CC1 [Example 178, dihydrochloride] showed pIC50 equal to 7.21

CN(C)Cc1c(OCC2CC2)ccc2c(CCC3CCN(CC4CCCc5sccc54)CC3)noc12 (stereo not shown) [Example 93, dihydrochloride] tested on serotonin transporter (SERT) (Rattus norvegicus, UniProt P31652) gave pIC50: 8.05

# CNCc1c(OCc2ccc(F)cc2)ccc2c(CCC3CCN(CC4OCCO4)CC3)noc12 [Example 78, dihydrochloride] with serotonin transporter (SERT) (Rattus norvegicus, UniProt P31652): pIC50 is 8.96

Readout pIC50 for CN(C)Cc1c(N2CCCCC2)ccc2c(CCC3CCN(Cc4ccc(C#N)s4)CC3)noc12 [Example 210, dihydrochloride] , test system serotonin transporter (SERT) (Rattus norvegicus, UniProt P31652), was 7.92

---

# Test System: acetylcholine esterase (Rattus norvegicus)
# Sequence (P37136 32-614): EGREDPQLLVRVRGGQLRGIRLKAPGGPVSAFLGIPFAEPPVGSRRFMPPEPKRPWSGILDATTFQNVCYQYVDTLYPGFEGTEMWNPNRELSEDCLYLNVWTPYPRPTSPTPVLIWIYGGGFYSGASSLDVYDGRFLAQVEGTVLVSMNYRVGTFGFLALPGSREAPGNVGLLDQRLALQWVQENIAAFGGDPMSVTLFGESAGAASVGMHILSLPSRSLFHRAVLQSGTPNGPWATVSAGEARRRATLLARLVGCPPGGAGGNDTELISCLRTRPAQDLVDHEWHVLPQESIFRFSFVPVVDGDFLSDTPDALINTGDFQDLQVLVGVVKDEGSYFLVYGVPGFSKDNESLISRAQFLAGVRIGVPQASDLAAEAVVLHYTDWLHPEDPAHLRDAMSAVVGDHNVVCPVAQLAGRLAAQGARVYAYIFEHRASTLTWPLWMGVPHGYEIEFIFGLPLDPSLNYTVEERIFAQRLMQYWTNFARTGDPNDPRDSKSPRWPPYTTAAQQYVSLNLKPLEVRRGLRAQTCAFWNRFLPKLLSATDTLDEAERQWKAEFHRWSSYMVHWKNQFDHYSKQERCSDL
Where a name gives a salt, the structure may show the parent alone.
# maps each entry to its pIC50
Quick note: pIC50 values are minus log10 of concentrations in mol/L.

CN(C)Cc1c(OCC2CC2)ccc2c(CCC3CCN(Cc4c[nH]c5ccc(F)cc45)CC3)noc12 [Example 88, dihydrochloride]    8.11

For this molecule ( CN(C)Cc1c(OCC2CC2)ccc2c(CCC3CCN(Cc4ccccc4)CC3)noc12 [Example 39, dihydrochloride] ), measured pIC50 is 9.40

Input CN(C)Cc1ccc2c(CCC3CCN(Cc4ccccc4)CC3)noc2c1OCC1CC1 [Example 178, dihydrochloride] . Output pIC50: 8.39

// sample CN(C)Cc1c(N2CCOCC2)ccc2c(CCC3CCN(Cc4ccc(C#N)s4)CC3)noc12 [Example 213, dihydrochloride] , its pIC50 was 8.52

For this molecule ( CNCc1c(OCc2ccc(F)cc2)ccc2c(CCC3CCN(CC4OCCO4)CC3)noc12 [Example 78, dihydrochloride] ), measured pIC50 is 9.15

What the record says about CN(C)Cc1c(OCC2CC2)ccc2c(CCC3CCN(Cc4ccc(C#N)s4)CC3)noc12 [Example 155, dihydrochloride] : pIC50 is 8.30

# pIC50 (molecule: CN(C)Cc1c(OCc2ccc(F)cc2)ccc2c(CCC3CCN(CC4OCCO4)CC3)noc12 [Example 22, dihydrobromide] ) is 8.39

Recorded pIC50 (molecule CN(C)Cc1c(-c2ccccc2)ccc2c(CCC3CCN(Cc4ccccc4)CC3)noc12 [Example 120, dihydrochloride] ): 8.89

Looking up CN(C)Cc1c(OCC2CC2)ccc2c(CCC3CCN(CC4CCCc5sccc54)CC3)noc12 (stereo not shown) [Example 93, dihydrochloride] , I found its pIC50 recorded as 7.14

The recorded pIC50 for entry CN(C)Cc1c(N2CCCCC2)ccc2c(CCC3CCN(Cc4ccc(C#N)s4)CC3)noc12 [Example 210, dihydrochloride] equals 8.62

// sample CN(C)Cc1c2ccccc2cc2c(CCC3CCN(Cc4ccc(C#N)s4)CC3)noc12 [Example 151, dihydrochloride] , its pIC50 was 7.48

The reported value for CNCc1c2ccccc2cc2c(CCC3CCN(Cc4ccc(C#N)s4)CC3)noc12 [Example 152, dihydrochloride] in terms of pIC50 is 8.31

Sure, the documented pIC50 for CN(C)Cc1c(OCC2CC2)ccc2c(CCC3CCN(CC4(CO)CCCC4)CC3)noc12 [Example 51, dihydrochloride] is 8.44

Entry CN(C)Cc1c(OCc2ccc(C#N)cc2)ccc2c(CCC3CCN(Cc4ccccc4)CC3)noc12 [Example 153, dihydrochloride] — recorded pIC50 = 9.40

So for N#Cc1ccc(CN2CCC(CCc3noc4c(CN5CCC5)c(OCC5CC5)ccc34)CC2)s1 [Example 118, fumarate] , the logged pIC50 turned out to be 7.92

Short answer for CN(C)Cc1c(OCc2ccc(C#N)cc2)ccc2c(CCC3CCN(CC4OCCO4)CC3)noc12 [Example 154, fumarate] : pIC50 was 8.52
